- experimental target: AMP-activated protein kinase, AMPK (Homo sapiens) (UniProt P54646+O43741+P54619+Q9UGJ0+Q9Y478+Q13131+Q9UGI9)
- assay procedure: AMP-dependent Kinase enzyme assay. An in vitro enzyme assay that detects ADP turnover that is directly proportional to AMPK activity. This uses naive AMPK that is activated during the assay with MK-8722
- Assay type: functional
- Set-up: scale not given: direction of the effect not stated beside the values
- assay conditions: 30 µM
observed property: Percent Effect (%)
Give the value in % but do not write % after it.

Solved cases (6 shown):
| molecule | Percent Effect [%] |
| --- | --- |
| CCc1nccn1C1CCCN(C(=O)c2cc3nc(C)ccc3o2)C1 (stereo unspecified) | -3.48 |
| CCn1cc(NC(=O)NCC(O)CN2CCCCC2)cn1 (stereo unspecified) | 2.67 |
| Cc1n[nH]c(C2CN(C(=O)c3ccco3)CCO2)n1 (stereo unspecified) | 7.87 |
| Cc1nnc([C@@H]2CC[C@@H]3[C@@H](CCN3S(=O)(=O)c3cccnc3)O2)o1 | 7.11 |
| CN(C)CCOCC1CN(C(=O)[C@H]2CCCO2)Cc2ccnn2C1 (stereo partly specified) | -0.823 |
| O=C(NCc1ccc(-c2ccn[nH]2)cc1)N1CCC(N2CCCC2)C1 (stereo unspecified) | -5.77 |

## Task Specify Percent Effect for `COc1ccc(-n2cnnc2SCC(C)(C)O)cn1` and stop.
## Result -3.7

## Task Specify Percent Effect for `CNC(=O)c1cccc(NC(=O)Cn2nc(-c3cccs3)oc2=O)c1` and stop.
## Result 133

## Task Specify Percent Effect for `O=C(Cc1ccccc1F)N1CCN(C(=O)c2ccoc2)CC1` and stop.
## Result 7.43

## Task Specify Percent Effect for `COc1ccnc(N2CCN(C(=O)c3cnn(C)c3C3CC3)CC2)n1` and stop.
## Result -3.14

## Task Specify Percent Effect for `O=C(CSc1ccncc1)N1C[C@H]2CC[C@@H]1CN(Cc1cccnc1)C2` and stop.
## Result 10.6

---

# Percent Effect listing for each entry below
- experimental target: Protein translocase subunit SecA (Escherichia coli (strain K12))
- assay procedure: Assay to Identify E. coli SecA ATPase Inhibitors
- Type: functional
- Parameters: scale not given: direction of the effect not stated beside the values
- assay conditions: 30 µM
Measured potencies and affinities stand elsewhere.
Give the value in % but do not write % after it.

Solved cases (10 shown):
| compound | measurement units | Percent Effect |
| --- | --- | --- |
| Cc1csc(CCCNC(=O)[C@H]2CNC[C@@H](C(=O)N3CCCC3)C2)n1 | % | -4.06 |
| Cc1ccc(NS(=O)(=O)c2cc3c(c(C(=O)O)c2)OCCO3)c(F)c1 | % | -10.1 |
| CO[C@@H]1CC[C@H]2[C@H]1OCCN2C(=O)c1ccc(C)o1 | % | 2.4 |
| COc1ccc(NC(=O)NCC(O)c2ccc(F)cc2F)c(OC)c1 (centres undefined) | % | 0.46 |
| COc1cccc(N2CCN(CC(O)c3cc(C)sc3C)CC2)c1 (centres undefined) | % | -4.6 |
| COCCCN(CCOC)C(=O)Nc1ccccc1Br | % | 0.00988 |
| CNC(=O)c1ccc(CN2CCC(N(C)Cc3noc(C)n3)C2)cc1 (centres undefined) | % | -2.92 |
| c1ccc(-n2ncc(CNCC3CCCN3c3cccnn3)n2)cc1 (centres undefined) | % | -3.03 |
| CN(C)c1ccc(CNc2cncc(-n3cccn3)n2)cc1 | % | -3.75 |
| O=C1NCCCCC1Sc1nnc(C2CC2)n1C1CC1 (centres undefined) | % | 1.19 |

Now look at this entry.
## Task State recorded Percent Effect with Protein translocase subunit SecA (Escherichia coli (strain K12)), entry CNS(=O)(=O)c1ccc(C(=O)N2CCCC2c2ccccc2)o1 (centres undefined) , no comment.
## Result -6.62
